# Subject Of Test: Cytochrome P450 3A4 (Homo sapiens)
# Procedure Details: Cytochrome panel assay with activity outcomes
# Assay Conditions: recombinant CYP, pro-luciferin dealkylation, luminescence, p450-cyp3a4; series mostly up to 57.1 µM
The whole screen tested about 16,000 compounds, of which about 5,100 (32%) were called active. Not shown: some 25% with an inconclusive outcome. Some of the results follow.

Smi	AC50
C/C(=N\OC(=O)c1cccc(C)c1)c1sc(-c2ccccc2)nc1C	inactive
Cc1c(CCO)c(=O)n(-c2ccccc2)n1S(=O)(=O)c1c(Cl)cc(Cl)cc1Cl	4.47 µM (active)
Cc1cc(C)c2c(N=NN(C)C)[nH]nc2n1	inactive

###

# Subject Of Test: Cytochrome P450 3A4 (Homo sapiens)
# Procedure Details: Cytochrome panel assay with activity outcomes
# Assay Conditions: recombinant CYP, pro-luciferin dealkylation, luminescence, p450-cyp3a4; series mostly up to 57.1 µM
About 5,100 (32%) of roughly 16,000 compounds were called active. Not shown: some 25% with an inconclusive outcome. The call rests on the fitted dose curve; in most records, active means well fitted curve in the direction sought with a large enough effect; inconclusive means small, poorly fitted or top-dose-only effect, or effect the other way; inactive means no such curve, though single readings can be large or run the other way. Some of the results follow.
Hello, when you answer, please use one of the following outcomes: t for active, f for inactive

Worked examples follow.
Compound	Group Label
C[C@@]12CCC(=O)C=C1CC[C@@H]1[C@@H]2[C@H](O)C[C@]2(C)[C@@H]1CC[C@]2(O)C(=O)CO	f
Nc1ccc(N(c2ccccc2)c2ccc(N)cc2)cc1	t
COC(=O)c1ccccc1NC(=O)C(CCS(C)(=O)=O)NC(C)=O (stereo not drawn)	f
CC(=O)NNc1cccc(Cl)n1	f
C/C(CCC(=O)OC[C@@H]1O[C@H](C#Cc2ccccc2)C=C[C@@H]1Oc1ccc(C)cc1)=N/OC[C@@H](O)[C@H]1O[C@H]2OC(C)(C)O[C@H]2[C@@H]1O	t
COc1ccccc1CNc1ncnc2ccc(-c3ccccc3C#N)cc12	t

Attention now turns to another entry.
Dear all, I need the recorded test outcome for `Cc1cc(C(F)F)n2ncc(C(=O)NCc3ccccc3C(F)(F)F)c2n1` , thank you.
f

###

# Subject Of Test: Cytochrome P450 3A4 (Homo sapiens)
# Procedure Details: Cytochrome panel assay with activity outcomes
# Assay Conditions: recombinant CYP, pro-luciferin dealkylation, luminescence, p450-cyp3a4; series mostly up to 57.1 µM
Among all 16,000 compounds or so, about 5,100 (32%) were called active. Roughly 25% stayed inconclusive and do not appear here. Some of the results follow.
Property Label: AC50

// worked examples, AC50 included
Molecule	Property Label	Recorded Measurement
O=C(Oc1ccccc1)N1CCC2(CC1)CCN(c1ccncc1)CC2	AC50	inactive
Cc1snc(SCC(=O)N/N=C(\N)COc2cccc(C(F)(F)F)c2)c1C#N	AC50	3.16 µM (active)
CC1(C)Cc2c(sc3c2C(=O)N(c2ccccc2)C2=NCCN23)CS1	AC50	inactive
O=C(Cn1nnc2ccccc21)N/N=C\C=C\c1ccccc1	AC50	inactive
CC(=O)NCCC(=O)Nc1sc2c(c1-c1nc3ccccc3[nH]1)CCCC2	AC50	12.6 µM (active)
CC1(C)Cc2c(sc3nc(SCC(=O)NCc4ccccc4)n(-c4ccccc4)c(=O)c23)CS1	AC50	3.55 µM (active)

Given the molecule `O=C(CSCC(=O)OCn1nnc2ccccc2c1=O)Nc1ccc(Cl)cc1` , what is its reported AC50?
22.4 µM (active)

Given the molecule CN(C)N1C(N)=C(C#N)C(c2cccnc2)C2=C1CC(C)(C)CC2=O (stereo unspecified) , what is its reported AC50?
2.24 µM (active)

Given the molecule `CC(C)=CCC/C(C)=C/CO/N=C1/C[C@@H](O)[C@@H](O)[C@@H]2[C@@H]3C(=O)N(Cc4ccc5c(c4)OCO5)C(=O)[C@H]3CC[C@H]12` , what is its reported AC50?
1.58 µM (active)

Given the molecule `Cc1ccc(NC(=O)N/C=C/c2ccc(Cl)cc2)cc1` , what is its reported AC50?
0.0501 µM (active)

Given the molecule `O=C(CNC(=O)c1cccs1)NCC(=O)OCc1ccc(Cl)cc1Cl` , what is its reported AC50?
7.08 µM (active)

Given the molecule O=C(OCC1CC(c2ccccc2)=NO1)c1ccc(Cl)cc1 (stereo unspecified) , what is its reported AC50?
inactive

Given the molecule Cc1ccc(-c2cc(-c3nnc(SCC(=O)NC(C)C(C)C)n3N)c3ccccc3n2)cc1 (stereo unspecified) , what is its reported AC50?
14.1 µM (active)

Given the molecule COc1ccccc1C1=NOC(COC(=O)c2ccc3ccccc3n2)C1 (stereo unspecified) , what is its reported AC50?
17.8 µM (active)
